protocol: chemical genetic growth profiling, strain panel (AID 1159580);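 also: tested at 20 µM; growth read once vehicle control cultures reached saturation at 30 °C; 1 = growth at the plate median or of vehicle wells; lower values mean less growth of the strain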
experimental.conditions: S. cerevisiae deletion strains, growth OD, locus YNL128W, strain TEP1
The campaign covered roughly 5,500 compounds. About 2,000 (36%) were called active. Not shown: some 18% with an inconclusive outcome. Rule as the data show it: active = normalized growth mostly below about 0.91 (no sharp cut-off); inconclusive = no clear call, values can overlap the other calls; inactive = mostly above about 0.92. This is one part of the list.
Tick one outcome: active, inactive

Ask | Recorded test outcome, item "Cc1ccc(S(=O)(=O)NC(=O)NN2CCCCCC2)cc1"
Reply | inactive

Ask | Check the results log: what was the call for "O=[N+]([O-])c1ccc(S(=O)(=O)N2CCCCC2)cc1" ?
Reply | inactive

Ask | Which outcome did this test record for the compound "Cc1ccc(C(=O)Nc2ccc(S(=O)(=O)O)c3cc(S(=O)(=O)O)cc(S(=O)(=O)O)c23)cc1NC(=O)c1cccc(NC(=O)Nc2cccc(C(=O)Nc3cc(C(=O)Nc4ccc(S(=O)(=O)O)c5cc(S(=O)(=O)O)cc(S(=O)(=O)O)c45)ccc3C)c2)c1" ?
Reply | inactive

Ask | For this compound, state the assay outcome: "CCOC(=O)N=Nc1c(O)[nH]c2ccc(F)cc12"
Reply | inactive

Ask | Called result for "CC1(C)S[C@@H]2[C@H](NC(=O)[C@H](N)c3ccccc3)C(=O)N2[C@H]1C(=O)O"
Reply | inactive

Ask | Lab log entry: "C[n+]1c2cc(N)ccc2cc2ccc(N)cc21" — outcome as called in the assay?
Reply | active

Ask | GET /call?item= NCCC(O)C(=O)NC1CC(N)C(OC2OC(CN)C(O)C(O)C2N)C(OC2OC(CO)C(O)C2O)C1O (stereo not drawn) returns the recorded outcome of this test.
Reply | inactive

Ask | Query: recorded result category for "O=C(CSc1ccc(Cl)cc1)Nc1ccc(F)cc1" in this test
Reply | inactive

Ask | Assay outcome for "CSc1c(-c2ccccc2)c(N)nn1S(=O)(=O)c1ccccc1" : what was it?
Reply | inactive

Ask | Hey, what did the test say about "Cc1nn(C)c(C)c1[N+](=O)[O-]" ?
Reply | inactive

Ask | In this assay, the call recorded for CCCCCCC(C)OC(=O)COc1cc(Cl)c(Cl)cc1Cl (stereo not drawn) was what?
Reply | inactive

Ask | Kindly provide the recorded test outcome for the following compound: O=C(OCC(O)CO)c1ccccc1Nc1ccnc2cc(Cl)ccc12 (stereo not drawn)
Reply | inactive

Ask | Recorded call for "COc1cc(OC)c2c(c1)O[C@H](c1cc(OC)c(OC)c(OC)c1)[C@H](OC(=O)c1cc(OC)c(OC)c(OC)c1)C2" ?
Reply | inactive

Ask | Recorded test outcome, item "Nc1nc(=S)c2[nH]cnc2[nH]1"
Reply | inactive

Ask | Hi, sorry to bother you, what did the test record for "COc1ccc(-c2coc3cc(O)ccc3c2=O)c(OC)c1" ?
Reply | inactive

Ask | So what was the verdict on C[C@]12CCC(=O)C=C1C=CC1C2CC[C@@]2(C)C1CC[C@@]21CCC(=O)O1 (stereo partly drawn) in this test?
Reply | inactive

Ask | Which result was noted for this compound in the test: "Cn1c2c(c(=O)n(C)c1=O)CN(CCCCCCO)CN2"
Reply | inactive

Ask | In this assay, the call recorded for "COC(=O)c1ccc2c(c1)N(C)S(=O)(=O)CC2=O" was what?
Reply | inactive

Ask | Identify the outcome logged in this assay for the compound shown: "O=C(O[C@@H]1Cc2c(O)cc(O)cc2O[C@@H]1c1cc(O)c(O)c(O)c1)c1cc(O)c(O)c(O)c1"
Reply | active

Ask | Short answer needed: outcome of this test for O=C(CC1NCCN(Cc2ccccc2)C1=O)Nc1ccc(Cl)cc1 (stereo not drawn) ?
Reply | inactive

Ask | Kindly provide the recorded test outcome for the following compound: C[C@]12CCC(=O)C=C1C=CC1C2CC[C@@]2(C)C1CC[C@@]2(O)CCC(=O)O (stereo partly drawn)
Reply | inactive

Ask | Hi, do you know how "O=C(O)c1cc2cc(F)ccc2[nH]1" came out in this test?
Reply | inactive

Ask | Tell me the assay call for "CNCC[C@@H](Oc1ccc(C(F)(F)F)cc1)c1ccccc1" please.
Reply | inactive

====

protocol: chemical genetic growth profiling, strain panel (AID 1159580);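 also: tested at 20 µM; growth read once vehicle control cultures reached saturation at 30 °C; 1 = growth at the plate median or of vehicle wells; lower values mean less growth of the strain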
experimental.conditions: S. cerevisiae deletion strains, growth OD, locus YLL041C, strain sdh2, hits give low values
Screen size: about 5,500 compounds; about 2,000 (36%) were called active. Another 18% or so got no clear call; they are omitted. This is one part of the list.
parameter: normalized growth
Output spec: single numeric token, no unit.

Ask | Name the recorded normalized growth of the compound listed here: OCC(O)CN1CCN(c2ccccc2)CC1 (centres undefined)
Reply | 0.975

Ask | Look up and report measured normalized growth for this entry: COC(=O)[C@@H]1OC(=O)C2OC23[C@@]1(C)CCC1[C@]2(C)C(C[C@H](O)[C@]13C)C(C)(C)[C@H](OC(C)=O)C[C@@H]2OC(C)=O (some centres undefined)
Reply | 1

Ask | Return normalized growth (reported value) for this compound: C[C@]12CCC(=O)C=C1C=CC1C2CC[C@@]2(C)C1CC[C@@]21CCC(=O)O1 (some centres undefined)
Reply | 0.983

Ask | Return reported normalized growth. Input compound: "COc1ccc(-c2coc3cc(O)ccc3c2=O)c(OC)c1O"
Reply | 0.994

Ask | Fill in reported normalized growth for this entry: "COc1ccc(C(c2ccc(OC)cc2)C(Cl)(Cl)Cl)cc1"
Reply | 1.02

Ask | Indicate its recorded normalized growth; the compound in question is "O=C(Oc1cc(O)cc2c1C[C@@H](OC(=O)c1cc(O)c(O)c(O)c1)[C@@H](c1cc(O)c(O)c(O)c1)O2)c1cc(O)c(O)c(O)c1"
Reply | 1.01

Ask | Kindly indicate its recorded normalized growth. Item: "O=c1c(-c2ccc(O)cc2)coc2cc(O)ccc12"
Reply | 0.986

Ask | Return the recorded normalized growth value; entry: "COc1ccc(-c2coc3cc(O)ccc3c2=O)cc1"
Reply | 0.983

Ask | Name the recorded normalized growth of the item "Nc1ncn[nH]1" in your answer.
Reply | 1.02

Ask | For the compound Clc1ccc(C(OCCN2CCCCC2)c2ccccc2)cc1 (centres undefined) , report normalized growth.
Reply | 1.01

Ask | Give the measured normalized growth for "CC(=O)Oc1cc(OC(C)=O)c2c(c1)O[C@H](c1ccc(OC(C)=O)c(OC(C)=O)c1)[C@@H](OC(C)=O)C2"
Reply | 0.997

Ask | Provide normalized growth value for the following compound: "CC[C@@]1(O)C[C@H](O[C@H]2C[C@H](N(C)C)[C@H](O)[C@H](C)O2)c2c(cc3c(c2O)C(=O)c2c(O)ccc(O)c2C3=O)[C@H]1C(=O)OC"
Reply | 0.935

Ask | Tell us which normalized growth value is on record for "Cc1ccc(C(=O)Nc2ccc(S(=O)(=O)O)c3cc(S(=O)(=O)O)cc(S(=O)(=O)O)c23)cc1NC(=O)c1cccc(NC(=O)Nc2cccc(C(=O)Nc3cc(C(=O)Nc4ccc(S(=O)(=O)O)c5cc(S(=O)(=O)O)cc(S(=O)(=O)O)c45)ccc3C)c2)c1"
Reply | 1.02

Ask | Consider the compound CN(C)CCOC(c1ccc(Cl)cc1)c1ccccn1 (centres undefined) and give its recorded normalized growth.
Reply | 1.02

Ask | Quick one: give measured normalized growth for "c1ccc2c(c1)sc1ccccc12"
Reply | 0.935

Ask | Return reported normalized growth. Input compound: "O=C(O[C@@H]1Cc2c(O)cc(O)cc2O[C@@H]1c1cc(O)c(O)c(O)c1)c1cc(O)c(O)c(O)c1"
Reply | 0.962

Ask | Return normalized growth (reported value) for this compound: "O=C(Oc1cc(OC(=O)c2ccccc2)c2c(c1)O[C@H](c1ccc(OC(=O)c3ccccc3)c(OC(=O)c3ccccc3)c1)[C@@H](OC(=O)c1ccccc1)C2)c1ccccc1"
Reply | 1

Ask | Item "Clc1ccc(C(c2ccc(Cl)cc2)C(Cl)(Cl)Cl)cc1" : provide normalized growth
Reply | 1.01

Ask | # return recorded normalized growth for entry CC(=O)S[C@@H]1CC2=CC(=O)CC[C@]2(C)[C@H]2CC[C@@]3(C)[C@@H](CC[C@@]34CCC(=O)O4)C12 (some centres undefined)
Reply | 1.01

Ask | Give normalized growth for "O=C1NCC2(CCN(CCc3ccccc3)CC2)O1"
Reply | 0.999

Ask | For "COc1ccc(-c2coc3cc(O)ccc3c2=O)c(O)c1O" , write its normalized growth.
Reply | 0.968

Ask | Consider the compound "NCCc1cnc[nH]1" and give its recorded normalized growth.
Reply | 1.02

Ask | Find the measured normalized growth of "CN1CCC(OC(c2ccccc2)c2ccccc2)CC1" and report it.
Reply | 0.985

Ask | For the compound "CC[C@@]1(O)C[C@H](O)c2c(cc3c(c2O)C(=O)c2c(O)ccc(O)c2C3=O)[C@H]1C(=O)OC" , give its measured normalized growth value.
Reply | 0.982

Taken from PubChem BioAssay AID1159580.
